Listing of recorded IC50 by entry.
# MEASURED_TARGET: LSD-1 enzyme (Homo sapiens (Human), UniProt O60341)
# Assay type: biochemical
# Method: LANCE LSD1/KDM1A demethylase assay-10 μL of 1 nM LSD-1 enzyme (ENZO BML-SE544-0050) in the assay buffer (50 mM Tris, pH 7.5, 0.01% Tween-20, 25 mM NaCl, 5 mM DTT) were preincubated for 1 hour at 25° C. with 0.8 μL compound/DMSO dotted in black 384 well polystyrene plates. […] After stopping the reactions plates were incubated for 30 minutes and read on a PHERAstar FS plate reader (BMG Labtech).

Example cases with answers are listed next.
// sample Cc1ccc(-c2c(-c3ccc(C#N)cc3)cc(OC[C@@H]3CCNC3)c3nn(Cc4ccccc4)c(=O)n23)cc1 [Example 16] , its IC50 was < 50 nM

Documented IC50 of Cc1ccc(-c2c(-c3ccc(C#N)cc3)cc(OC[C@@H]3CCNC3)c3nn(CC4CCCC4)c(=O)n23)cc1 [Example 7] : < 50 nM

---
Quick note, IC50 for Cc1ccc(-c2c(-c3ccc(C#N)cc3)cc(OC[C@@H]3CCNC3)c3nn(CC#N)c(=O)n23)cc1 [Example 5] landed at < 50 nM
